B1: FCHO1 (parent)
chain: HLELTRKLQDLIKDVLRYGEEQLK

# Variants of: B1
# assay.name: protein stability index of a GFP-peptide fusion (GPS, HEK-293T) (PSI 1-6); higher = more stable;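 further: lentivirally expressed fusions sorted by FACS into six bins by GFP to DsRed ratio, PSI derived from sequencing read proportions per bin multiplied by bin number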
# condition: c terminus: a fixed tail appended
# if value of protein stability index reaches 2, tag true (1); if it stays below, tag false (0)

| sequence.input | discrete.label |
| --- | --- |
| HLELTRKLQDLIKDVLRYGEEQLV [K24V] | true (1) |
| HMELTRKLQDLIKDVLRYGEEQLK [L2M] | true (1) |
| HLELTRKLQDRIKDVLRYGEEQLK [L11R] | false (0) |
| HLELTRKLQDLIKDELRYGEEQLK [V15E] | true (1) |
| HLELTRKLQDLIKDVLRMGEEQLK [Y18M] | true (1) |

stdin: Answer whether protein stability index of HLELTTKLQDLIKDVLRYGEEQLK [R6T] is greater than or equal to 2.
stdout: false (0)

stdin: Answer whether protein stability index of HLELTRKLQDLIQDVLRYGEEQLK [K13Q] is greater than or equal to 2.
stdout: false (0)

stdin: Answer whether protein stability index of HLELTRVLQDLIKDVLRYGEEQLK [K7V] is greater than or equal to 2.
stdout: false (0)

stdin: Answer whether protein stability index of HLELTRKLQDLIKDVFRYGEEQLK [L16F] is greater than or equal to 2.
stdout: true (1)

stdin: Answer whether protein stability index of HHELTRKLQDLIKDVLRYGEEQLK [L2H] is greater than or equal to 2.
stdout: false (0)

stdin: Answer whether protein stability index of VLELTRKLQDLIKDVLRYGEEQLK [H1V] is greater than or equal to 2.
stdout: false (0)

stdin: Answer whether protein stability index of HLELTRKLQDLIKDVLRYGEEQLY [K24Y] is greater than or equal to 2.
stdout: true (1)

stdin: Answer whether protein stability index of HLELTDKLQDLIKDVLRYGEEQLK [R6D] is greater than or equal to 2.
stdout: false (0)

stdin: Answer whether protein stability index of HLELTRKLQDLIKDVLRYGEEMLK [Q22M] is greater than or equal to 2.
stdout: false (0)

stdin: Answer whether protein stability index of HLELTRKLQDLIKDVLRYGEEQAK [L23A] is greater than or equal to 2.
stdout: true (1)

Provenance of the data: the supplement of paper PMC10567573
